# tested.system: GSK3b (GST-full length GSK3b) (Homo sapiens (Human), UniProt P49841)
# Sequence (P49841 whole entry): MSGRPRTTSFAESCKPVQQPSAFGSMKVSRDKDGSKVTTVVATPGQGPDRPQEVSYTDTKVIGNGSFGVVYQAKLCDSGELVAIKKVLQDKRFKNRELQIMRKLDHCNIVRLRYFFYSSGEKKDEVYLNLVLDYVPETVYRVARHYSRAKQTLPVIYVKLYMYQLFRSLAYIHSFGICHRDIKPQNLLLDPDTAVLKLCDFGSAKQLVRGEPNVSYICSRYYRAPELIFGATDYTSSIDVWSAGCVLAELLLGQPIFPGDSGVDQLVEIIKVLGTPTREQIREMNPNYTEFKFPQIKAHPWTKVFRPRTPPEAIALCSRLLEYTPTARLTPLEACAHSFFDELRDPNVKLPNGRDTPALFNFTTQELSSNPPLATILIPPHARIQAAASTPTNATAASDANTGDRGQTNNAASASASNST
# assay.explanation: GSK3b TR-FRET kinase assay
# Assay type: biochemical
# experimental.context: 1 nM GSK3b, 2 μM ATP, 30 minute preincubation; geometric mean; read-out: GSK3-B TR-FRET BIOCHEMICAL (TR-FRET); GMean; IC50
pIC50: −log10 of the molar value.
quantity.name: pIC50

>>> df
                                   molecule                             tested_system  quantity_name        result
0  CCC1(c2cccc(-c3ccnc(C)c3)c2)C2=C(CC(C)(C)N(C)C2=O)Nc2n[nH]cc21 (stereo not drawn) [Compound 949009]  GSK3b (GST-full length GSK3b) (Homo sapiens (Human), UniProt P49841)          pIC50        < 5.30
1  CC1(C)CC(=O)C2=C(C1)Nc1n[nH]c(CC(F)(F)F)c1C21CCc2c(F)cccc21 (stereo not drawn) [Compound 810590]  GSK3b (GST-full length GSK3b) (Homo sapiens (Human), UniProt P49841)          pIC50  6.00 to 7.00
2  CC[C@]1(c2cccc(-c3ccnn3C)c2)C2=C(CC3(CCCC3)NC2=O)Nc2n[nH]cc21 [Compound 948018]  GSK3b (GST-full length GSK3b) (Homo sapiens (Human), UniProt P49841)          pIC50        ≥ 7.00

----------
# tested.system: GSK3α (GST-full length GSK3α) (Homo sapiens (Human), UniProt P49840)
# Sequence (P49840 whole entry): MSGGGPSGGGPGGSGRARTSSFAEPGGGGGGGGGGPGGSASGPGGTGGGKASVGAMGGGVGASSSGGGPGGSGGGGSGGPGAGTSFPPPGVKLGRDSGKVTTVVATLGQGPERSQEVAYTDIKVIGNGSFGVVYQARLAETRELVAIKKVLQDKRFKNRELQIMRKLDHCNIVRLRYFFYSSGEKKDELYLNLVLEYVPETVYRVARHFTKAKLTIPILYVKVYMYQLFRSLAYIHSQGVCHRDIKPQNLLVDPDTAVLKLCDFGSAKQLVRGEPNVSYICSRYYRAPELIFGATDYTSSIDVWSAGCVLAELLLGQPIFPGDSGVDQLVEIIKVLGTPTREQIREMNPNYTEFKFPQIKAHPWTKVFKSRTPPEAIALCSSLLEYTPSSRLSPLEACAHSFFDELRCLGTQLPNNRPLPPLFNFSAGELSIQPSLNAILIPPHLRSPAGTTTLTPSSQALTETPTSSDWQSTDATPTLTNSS
# assay.explanation: GSK3α TR-FRET kinase assay
# Assay type: biochemical
# experimental.context: 1 nM GSK3α, 4 μM ATP, 30 minute preincubation, Table 16; read-out: GSK3-A TR-FRET BIOCHEMICAL (TR-FRET)
quantity.name: IC50

In [3]: df
Out[3]:
                                    molecule           result
 0  CC1(C)CC(=O)C2=C(C1)Nc1n[nH]cc1[C@@]21CCN(S(=O)(=O)c2cccc(F)c2)C1         ≤ 100 nM
 1  CC1(C)CC(=O)C2=C(Nc3n[nH]cc3C23CCN(S(=O)(=O)c2cccc(C(F)(F)F)c2)CC3)[C@H]1F         ≤ 100 nM
 2  C[C@@H]1CCC[C@@]2(C1)C1=C(CC(C)(C)CC1=O)Nc1n[nH]cc12 [Compound 874537]   100 to 1000 nM
 3  C[C@H]1C[C@@]2(CCO1)C1=C(CC(C)(C)CC1=O)Nc1n[nH]cc12   100 to 1000 nM
 4  CC[C@]1(c2cccc(Cc3ncccn3)c2)C2=C(CC(C)(C)CC2=O)Nc2n[nH]cc21  1000 to 5000 nM
 5  CC[C@@]1(c2cccc(-c3ccnn3C)c2)C2=C(CC(C)(C)CC2=O)Nc2n[nH]c(C(F)(F)F)c21         ≤ 100 nM
 6  CC[C@]1(c2ccccc2)C2=C(C[C@]3(CCN(C)C3=O)CC2=O)Nc2n[nH]cc21        > 5000 nM
 7  Cc1cccc(S(=O)(=O)N2CC[C@]3(C2)C2=C(CC(C)(C)CC2=O)Nc2n[nH]cc23)c1         ≤ 100 nM
 8  CCC1(c2cccc(-c3cnn4c3CCCC4)c2)C2=C(CC(C)(C)CC2=O)Nc2n[nH]cc21 (stereo not drawn) [Compound 945543]         ≤ 100 nM
 9  CC[C@@H]1C[C@@]2(CCO1)C1=C(CC(C)(C)CC1=O)Nc1n[nH]cc12         ≤ 100 nM
10  CC1(C)CC(=O)C2=C(Nc3n[nH]cc3[C@]23CC[C@@H](C(F)(F)F)CC3)C1F (stereo partly drawn)         ≤ 100 nM
11  CC[C@]1(c2ccccc2)C2=C(Nc3n[nH]cc31)[C@H]1CC[C@H](C1)C2=O   100 to 1000 nM

----------
The entries below are paired with their reported IC50.
# tested.system: GSK3b (GST-full length GSK3b) (Homo sapiens (Human), UniProt P49841)
# assay.explanation: GSK3b TR-FRET kinase assay
# Type: biochemical
# experimental.context: 1 nM GSK3b, 2 μM ATP, 30 minute preincubation, Table 16; read-out: GSK3-B TR-FRET BIOCHEMICAL (TR-FRET)
quantity.name: IC50

>>> df
                                   compound  quantity_name     result
0  Cc1cc(-c2cccc3c2CCC[C@]32C3=C(CC(C)(C)CC3=O)Nc3n[nH]cc32)ccn1           IC50   ≤ 100 nM
1  CCC1(c2cccc(Oc3ncccn3)c2)C2=C(CC(C)(C)CC2=O)Nc2n[nH]cc21 (stereo not shown) [Compound 947818]           IC50  > 5000 nM
2  CC[C@]1(c2cccc(S(=O)(=O)CCOC)c2)C2=C(CC(C)(C)CC2=O)Nc2n[nH]cc21           IC50  > 5000 nM
3  COC(=O)C1(c2ccccc2)CC2(C1)C1=C(CC(C)(C)CC1=O)Nc1n[nH]cc12 (stereo not shown) [Compound 942366]           IC50   ≤ 100 nM

----------
# tested.system: GSK3b (GST-full length GSK3b) (Homo sapiens (Human), UniProt P49841)
# assay.explanation: GSK3b TR-FRET kinase assay
# Format: biochemical
# experimental.context: 1 nM GSK3b, 2 μM ATP, 30 minute preincubation, Table 16; read-out: GSK3-B TR-FRET BIOCHEMICAL (TR-FRET)
quantity.name: IC50

In [3]: df
Out[3]:
                                   compound                             tested_system          result
0  CCC1(c2cccc(-c3cnc4n3CCCC4)c2)C2=C(CC(C)(C)CC2=O)Nc2n[nH]cc21 (stereo not drawn)  GSK3b (GST-full length GSK3b) (Homo sapiens (Human), UniProt P49841)        ≤ 100 nM
1  CC1(C)CC(=O)C2=C(C1)Nc1n[nH]cc1C21CCN(S(=O)(=O)c2ccc3c(c2)OCCO3)CC1  GSK3b (GST-full length GSK3b) (Homo sapiens (Human), UniProt P49841)        ≤ 100 nM
2  C[C@H]1CCC[C@]2(C1)C1=C(CC(C)(C)CC1=O)Nc1n[nH]cc12  GSK3b (GST-full length GSK3b) (Homo sapiens (Human), UniProt P49841)  100 to 1000 nM
3  COC(=O)C1CCC2(CC1)C1=C(CC(C)(C)CC1=O)Nc1n[nH]cc12 (stereo not drawn) [Compound 918277]  GSK3b (GST-full length GSK3b) (Homo sapiens (Human), UniProt P49841)  100 to 1000 nM
4  CCC1(CC)C2=C(CC(C)(C)CC2=O)Nc2n[nH]c(C)c21  GSK3b (GST-full length GSK3b) (Homo sapiens (Human), UniProt P49841)       > 1670 nM
5  CC1(C)CC(=O)C2=C(C1)Nc1n[nH]cc1[C@]21C[C@@H](n2cccn2)C1  GSK3b (GST-full length GSK3b) (Homo sapiens (Human), UniProt P49841)        ≤ 100 nM
6  C[C@@H]1CC[C@@]2(C1)C1=C(CC(C)(C)CC1=O)Nc1n[nH]cc12  GSK3b (GST-full length GSK3b) (Homo sapiens (Human), UniProt P49841)  100 to 1000 nM
7  CCC1(c2cccc(-c3cnnn3C(C)C)c2)C2=C(CC(C)(C)CC2=O)Nc2n[nH]cc21 (stereo not drawn)  GSK3b (GST-full length GSK3b) (Homo sapiens (Human), UniProt P49841)        ≤ 100 nM
8  CC1(C)CC(=O)C2=C(C1)Nc1n[nH]cc1C21CCOCC1  GSK3b (GST-full length GSK3b) (Homo sapiens (Human), UniProt P49841)  100 to 1000 nM

----------
# tested.system: GSK3α (GST-full length GSK3α) (Homo sapiens (Human), UniProt P49840)
# assay.explanation: GSK3α TR-FRET kinase assay
# Assay type: biochemical
# experimental.context: 1 nM GSK3α, 4 μM ATP, 30 minute preincubation, Table 16; read-out: GSK3-A TR-FRET BIOCHEMICAL (TR-FRET); IC50
The compounds listed here are annotated with their IC50.
quantity.name: IC50

In [3]: df
Out[3]:
                                    compound           result
 0  CC[C@@]1(c2cccc(-c3cnn(C)c3)c2)C2=C(CC(C)(C)C2=O)Nc2n[nH]cc21 [Compound 950819]   100 to 1000 nM
 1  CC[C@@]1(c2cccc(C(F)(F)F)c2)C2=C(CCN(c3cn(C)c(C)n3)C2=O)Nc2n[nH]cc21 [Compound 952478]  1000 to 5000 nM
 2  CCC1(c2cccc(-c3cc(C)nn3C)c2)C2=C(CC(C)(C)CC2=O)Nc2n[nH]cc21 (stereo not drawn) [Compound 929402]         ≤ 100 nM
 3  CC[C@]1(c2cccc(N(C)c3cnccn3)c2)C2=C(CC(C)(C)CC2=O)Nc2n[nH]cc21 [Compound 915340]   100 to 1000 nM
 4  CCC1(c2cccc(C3CCOC(C)(C)C3)c2)C2=C(CC(C)(C)CC2=O)Nc2n[nH]cc21 (stereo not drawn) [Compound 912089]   100 to 1000 nM
 5  CCC1(c2cccc(N3CCc4ccncc43)c2)C2=C(CC(C)(C)CC2=O)Nc2n[nH]cc21 (stereo not drawn) [Compound 912004]  1000 to 5000 nM
 6  CCC1(c2cccc(C(F)(F)F)c2)C2=C(CCN(c3cnn(C)c3)C2=O)Nc2n[nH]cc21 (stereo not drawn) [Compound 949270]         ≤ 100 nM
 7  CC[C@H]1C[C@]2(CCO1)C1=C(CC(C)(C)CC1=O)Nc1n[nH]cc12 [Compound 924311]   100 to 1000 nM
 8  CCC1(c2cccc(N3CCC3(C)C)c2)C2=C(CC(C)(C)CC2=O)Nc2n[nH]cc21 (stereo not drawn) [Compound 913141]   100 to 1000 nM
 9  CCC1(c2cccc(-c3ccnc(C)c3)c2)C2=C(CC(C)CC2=O)Nc2n[nH]cc21 (stereo not drawn) [Compound 932638]        > 5000 nM
10  CC[C@]1(c2cccc(C(F)(F)F)c2)C2=C(CCN(c3cn(C)c(C)n3)C2=O)Nc2n[nH]cc21 [Compound 952479]        > 5000 nM
11  CCC1(c2cccc(-c3cnn(CC#N)c3)c2)C2=C(CC(C)(C)NC2=O)Nc2n[nH]cc21 (stereo not drawn) [Compound 952210]         ≤ 100 nM
12  CC[C@@]1(c2cccc(-c3ccncc3F)c2)C2=C(CC(C)(C)NC2=O)Nc2n[nH]c(Cl)c21 [Compound 949757]         ≤ 100 nM
13  CCC1(c2cccc(-c3cnn(-c4ccccn4)c3)c2)C2=C(CC(C)(C)NC2=O)Nc2n[nH]cc21 (stereo not drawn) [Compound 952566]   100 to 1000 nM
14  CCC1(c2cccc(-c3c(C)cnc4ccccc34)c2)C2=C(CC(C)(C)NC2=O)Nc2n[nH]cc21 (stereo not drawn) [Compound 950825]        > 5000 nM
15  CCC1(COC)C2=C(CC(C)(C)CC2=O)Nc2n[nH]cc21 (stereo not drawn) [Compound 841866]        > 5000 nM
16  CCC1(c2cccc(-c3ccncc3F)c2)C2=C(CC(C)(C)CC2=O)Nc2n[nH]cc21 (stereo not drawn) [Compound 913349]         ≤ 100 nM
17  CCCS(=O)(=O)c1cccc(C2(CC)C3=C(CC(C)(C)CC3=O)Nc3n[nH]cc32)c1 (stereo not drawn) [Compound 917131]         ≤ 100 nM

Hello, the source for this data is patent US20250313563A1, in case you need it.
